Here the recorded cell count is given for each entry.
experiment: viability loss with induced miR-34 in A549 – imaging, A549 dox-inducible miR-34, nuclei and caspase counts, primary screen (AID 1347080); conditions: A549 miR-34 inducible, Hoechst nuclei count, 48 h; measured here: total cells without miR-34 induction; also: test concentration not given here
parameter-measured: cell count

>>> df
                                    molecule  measured_result
 0  O=c1[nH]c2cc(Cl)ccc2c(O)c1-c1ccc(Oc2ccccc2)cc1             9850
 1  O=C(NN=Cc1ccc([N+](=O)[O-])o1)c1ccc(O)cc1             8320
 2                      CC(=O)SCC[N+](C)(C)C            10400
 3    CN1CCN(NC(=S)Nc2ccc(S(N)(=O)=O)cc2)CC1             9700
 4                                 NOCC(=O)O             8920
 5  C[C@]12C[C@@]3(O)O[C@@H](O1)[C@]1(COC(=O)c4ccccc4)[C@H]3C[C@@]12OC1OC(CO)C(O)C(O)C1O (stereo partly specified)            10300
 6                            Nn1nnc2ccccc21             9990
 7         CCCCCCCCCCCCCCC[C@H](O)[C@H](N)CO             1170
 8  CCOc1ccc(Cc2cc(C3OC(CO)C(O)C(O)C3O)ccc2Cl)cc1 (stereo unspecified)             8340
 9  CCCN(CCc1ccccc1)C1CCc2c(O)cccc2C1 (stereo unspecified)             6070
10  OCCOc1ccc(C(=C(CCCl)c2ccccc2)c2ccccc2)cc1             9380

* * *

test: MELAS cybrid and Rieske KO viability enhancers – cell-based, MELAS cybrids, Rieske KO mouse fibroblasts, CellTiter-Glo, primary screen (AID 1508586); conditions: MELAS cybrid survival, low glucose, CellTiter-Glo 48 h; stronger effect = higher value;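 also: test concentration not given here; z relative to plate mean and SD of compound and empty wells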
parameter-measured: z-score

>>> print(df.to_string())
                                    molecule  measured_result
 0        Cc1ccc(-c2ncnc3scc(C)c23)c2cccnc12          -0.0169
 1    COc1cccc(OC)c1-c1ccc(C(=O)Nc2cccnc2)o1           0.0755
 2  Cc1cncc(CN2CCC(=C3c4ccc(Cl)cc4CCc4cccnc43)CC2)c1           -0.369
 3  CC1(C)C[C@H]1C(=O)N/C(=C\CCCCSC[C@@H](N)C(=O)O)C(=O)O            0.461
 4  CC(=O)c1cccc(-c2cc3c(n(C)c2=O)CCN(C(=O)c2ccc4[nH]c5c(c4c2)CCCC5)C3)c1          -0.0854
 5  COC1=C2CC(C)CC(OC)C(O)C(C)C=C(C)C(OC(N)=O)C(OC)C=CC=C(C)C(=O)NC(=CC1=O)C2=O (stereo not drawn)             2.85
 6  CN(C)CCOc1ccc(C(=C(CCCl)c2ccccc2)c2ccccc2)cc1           -0.446
 7  C=C1C[C@@]2(O)O[C@@]3(CC2C(C)C)C(C)CC[C@@H]13 (stereo partly drawn)           -0.407
 8  C=CC(C)(O)CCC1[C@@]2(C)CCCC(C)(C)C2CC[C@@]1(C)O (stereo partly drawn)           -0.292
 9       Cc1nsc(NC(=O)NCc2ccccc2-n2ccnc2C)n1           0.0398
10      CCn1cc(CNC(=O)Nc2nnc(C(C)(C)C)s2)cn1            0.641
11    COc1ccccc1-c1cnn(CC(=O)Nc2cc(C)nn2C)c1            0.116
12            O=C(O)c1ccc(-c2cc(Cl)ccc2Cl)o1           -0.277

Taken from PubChem BioAssay.
